All figures here come from patent US20240043504A1.

Target: Human SARS Coronavirus Spike S1 Subunit Protein (His Tag) (Sino 40150-V08B1) (Human SARS Coronavirus, UniProt P59594 14-667)
Test: Luminex bead binding, supernatant
Give Binding signal (MFI) for every item shown.
One number for each entry, in MFI.

{"binder": "mAb10971 (antibody, V domains shown) VH: EVQLVESGGGLIQPGGSLRLSCAASGVTVSSNYMSWVRQAPGKGLEWVSVIYSGGSTFYSDSVKGRFSISRDNSKNTLYLQMNSLRAEDTAVYYCARDLYYYGMDVWGQGTTVTVSS VL: DIQLTQSPSFLSASVGDRVTITCRASQGISTYLAWYQQKPGKAPKLLIYAASTLQSGVPSRFSGSGSGTEFTLTISSLQPEDFATYYCQQLDSYPGLTFGGGTKVEIKR", "u": "MFI", "Binding signal (MFI)": 20}
{"binder": "mAb10989 (antibody, V domains shown) VH: QVQLVQSGAEVKKPGASVKVSCKASGYIFTGYYMHWVRQAPGQGLEWMGWINPNSGGANYAQKFQGRVTLTRDTSITTVYMELSRLRFDDTAVYYCARGSRYDWNQNNWFDPWGQGTLVTVSS VL: QSALTQPASVSGSPGQSITISCTGTSSDVGTYNYVSWYQQHPGKAPKLMIFDVSNRPSGVSDRFSGSKSGNTASLTISGLQAEDEADYYCSSFTTSSTVVFGGGTKLTVLG", "u": "MFI", "Binding signal (MFI)": 21}
{"binder": "mAb10957 (antibody, V domains shown) VH: EVQLVESGGGLVQPGGSLRLSCAASGVTVSSNYMSWVRQAPGKGLEWVSVIYSGGSTFYADSVKGRFTISRDNSKNTLFLQMNSLRIEDTAVYYCARDLGPYGMDVWGQGTTVTVSS VL: DIQLTQSPSFLSASVGDRVTITCRASQGISSYLAWYQQKPGKAPKLLIYAASTLQSGVPSRFSGSGSGTQFILTISSLQPEDFATYYCQQLNSYPGFTFGPGTKVDIKR", "u": "MFI", "Binding signal (MFI)": 16}

Just so you know, measured Binding signal (MFI) for mAb10954 (antibody, V domains shown) VH: EVQLVESGGGLVQPGGSLRLSCAASGITVSSNYMSWVRQAPGKGLEWVSLIYSGGSTYYADSVKGRFTISRDNSKNTLYLQMNSLRVEDTAVYYCARDHGMAAAGYNYWGQGTLVTVSS VL: DIQMTQSPSSLSASVGDRVTITCQASQDINKYLNWYQQKPGKAPKLLIYDASNLETGVPSRFSGSGSGTDFTFTINSLQPEDFATYFCQQYDNLPPAFGQGTKVEIKR came out at 15
